- tgt: GCGR extracellular domain (human, UniProt P47871)
- Sequence (P47871 26-477): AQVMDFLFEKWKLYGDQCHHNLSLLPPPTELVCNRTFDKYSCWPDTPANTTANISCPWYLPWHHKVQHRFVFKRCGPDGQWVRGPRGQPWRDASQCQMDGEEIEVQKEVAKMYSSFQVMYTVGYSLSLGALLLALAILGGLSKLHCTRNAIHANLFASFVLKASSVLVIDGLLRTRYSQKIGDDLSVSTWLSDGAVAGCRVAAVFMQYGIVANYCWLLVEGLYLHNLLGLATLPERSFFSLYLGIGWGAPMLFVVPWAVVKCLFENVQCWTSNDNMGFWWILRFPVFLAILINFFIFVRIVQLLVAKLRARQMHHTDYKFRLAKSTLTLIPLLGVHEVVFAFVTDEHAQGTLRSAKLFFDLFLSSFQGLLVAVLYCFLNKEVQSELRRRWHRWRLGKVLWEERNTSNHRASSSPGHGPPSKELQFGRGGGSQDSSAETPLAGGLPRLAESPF
- procedureSummary: SPR
Reported log10(Kd) values for a set of binders
Log scale reminder: Kd in nM, then log10 taken.

binder: VL Y91E (antibody, V domains shown) VH: EVQLVESGGGLVQPGGSLRLSCAASGFNIYYNYIHWVRQAPGKGLEWVAEFSPYSGSTYYADSVKGRFTISADTSKNTAYLQMNSLRAEDTAVYYCARSAAIVDWYDYFKGFDYWGQGTLVTVSS VL: DIQMTQSPSSLSASVGDRVTITCRASQSVSSAVAWYQQKPGKAPKLLIYSASSLYSGVPSRFSGSRSGTDFTLTISSLQPEDFATYYCQQEGSYLYTFGQGTKVEIK
measured: 0.53
--
binder: VL Y94E (antibody, V domains shown) VH: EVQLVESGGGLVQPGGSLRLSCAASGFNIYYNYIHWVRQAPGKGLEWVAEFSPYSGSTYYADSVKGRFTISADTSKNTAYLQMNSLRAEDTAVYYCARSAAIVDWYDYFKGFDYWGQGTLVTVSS VL: DIQMTQSPSSLSASVGDRVTITCRASQSVSSAVAWYQQKPGKAPKLLIYSASSLYSGVPSRFSGSRSGTDFTLTISSLQPEDFATYYCQQYGSELYTFGQGTKVEIK
measured: 0.27
--
binder: VH Y100bQ (antibody, V domains shown) VH: EVQLVESGGGLVQPGGSLRLSCAASGFNIYYNYIHWVRQAPGKGLEWVAEFSPYSGSTYYADSVKGRFTISADTSKNTAYLQMNSLRAEDTAVYYCARSAAIVDWQDYFKGFDYWGQGTLVTVSS VL: DIQMTQSPSSLSASVGDRVTITCRASQSVSSAVAWYQQKPGKAPKLLIYSASSLYSGVPSRFSGSRSGTDFTLTISSLQPEDFATYYCQQYGSYLYTFGQGTKVEIK
measured: 0.78
--
binder: VL S93R (antibody, V domains shown) VH: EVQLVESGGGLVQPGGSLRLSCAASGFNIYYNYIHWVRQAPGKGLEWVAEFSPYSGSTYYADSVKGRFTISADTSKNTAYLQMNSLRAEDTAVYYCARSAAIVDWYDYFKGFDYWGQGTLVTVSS VL: DIQMTQSPSSLSASVGDRVTITCRASQSVSSAVAWYQQKPGKAPKLLIYSASSLYSGVPSRFSGSRSGTDFTLTISSLQPEDFATYYCQQYGRYLYTFGQGTKVEIK
measured: -0.12
--
binder: VH S54R (antibody, V domains shown) VH: EVQLVESGGGLVQPGGSLRLSCAASGFNIYYNYIHWVRQAPGKGLEWVAEFSPYRGSTYYADSVKGRFTISADTSKNTAYLQMNSLRAEDTAVYYCARSAAIVDWYDYFKGFDYWGQGTLVTVSS VL: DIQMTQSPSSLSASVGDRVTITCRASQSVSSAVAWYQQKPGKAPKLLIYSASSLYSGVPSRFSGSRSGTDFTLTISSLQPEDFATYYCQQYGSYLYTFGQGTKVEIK
measured: 1.20

Task item: Quick check: log10(Kd) of VH W100aV (antibody, V domains shown) VH: EVQLVESGGGLVQPGGSLRLSCAASGFNIYYNYIHWVRQAPGKGLEWVAEFSPYSGSTYYADSVKGRFTISADTSKNTAYLQMNSLRAEDTAVYYCARSAAIVDVYDYFKGFDYWGQGTLVTVSS VL: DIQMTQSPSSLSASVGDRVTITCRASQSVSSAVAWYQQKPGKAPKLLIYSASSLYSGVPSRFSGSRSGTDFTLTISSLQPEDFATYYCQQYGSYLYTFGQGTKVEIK ?
Reply: 0.77

Task item: Can you handle VH Y31H (antibody, V domains shown) VH: EVQLVESGGGLVQPGGSLRLSCAASGFNIYHNYIHWVRQAPGKGLEWVAEFSPYSGSTYYADSVKGRFTISADTSKNTAYLQMNSLRAEDTAVYYCARSAAIVDWYDYFKGFDYWGQGTLVTVSS VL: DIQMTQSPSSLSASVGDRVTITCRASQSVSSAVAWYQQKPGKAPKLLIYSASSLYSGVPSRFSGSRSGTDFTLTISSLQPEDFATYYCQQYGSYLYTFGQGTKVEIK next?
Reply: 1.24

Task item: Can you handle VH Y30E (antibody, V domains shown) VH: EVQLVESGGGLVQPGGSLRLSCAASGFNIEYNYIHWVRQAPGKGLEWVAEFSPYSGSTYYADSVKGRFTISADTSKNTAYLQMNSLRAEDTAVYYCARSAAIVDWYDYFKGFDYWGQGTLVTVSS VL: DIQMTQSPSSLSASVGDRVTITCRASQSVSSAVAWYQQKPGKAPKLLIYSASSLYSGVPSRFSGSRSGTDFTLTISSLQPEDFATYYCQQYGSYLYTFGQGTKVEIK next?
Reply: 1.65

Task item: Can you handle VL Y94N (antibody, V domains shown) VH: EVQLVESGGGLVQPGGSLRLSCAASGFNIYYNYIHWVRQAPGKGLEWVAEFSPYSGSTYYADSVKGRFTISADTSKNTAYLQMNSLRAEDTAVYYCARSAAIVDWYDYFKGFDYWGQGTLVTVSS VL: DIQMTQSPSSLSASVGDRVTITCRASQSVSSAVAWYQQKPGKAPKLLIYSASSLYSGVPSRFSGSRSGTDFTLTISSLQPEDFATYYCQQYGSNLYTFGQGTKVEIK next?
Reply: 0.26

Task item: Can you handle VH Y100bR (antibody, V domains shown) VH: EVQLVESGGGLVQPGGSLRLSCAASGFNIYYNYIHWVRQAPGKGLEWVAEFSPYSGSTYYADSVKGRFTISADTSKNTAYLQMNSLRAEDTAVYYCARSAAIVDWRDYFKGFDYWGQGTLVTVSS VL: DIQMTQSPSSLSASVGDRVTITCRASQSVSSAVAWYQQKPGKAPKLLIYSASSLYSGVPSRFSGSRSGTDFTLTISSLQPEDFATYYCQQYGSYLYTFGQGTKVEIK next?
Reply: 0.85
